Would you kindly list log10(IC50) for each of these compounds?
# protocol: Inhibition of clostridium neuraminidase using fluorescent substrate preincubated for 2 mins followed by substrate addition and measured after 30 mins by fluorescence based microplate reader analysis
In plain terms, each number is the log10 of measured IC50 in µM.

# compound, log10(IC50)
rows = [
    ("COc1cc(/C=N/NC(=O)c2cc(O)cc(O)c2)ccc1O", 1.06),
    ("O=C(N/N=C/c1cc([N+](=O)[O-])ccc1O)c1cc(O)cc(O)c1", 0.28),
    ("O=C(N/N=C/c1ccc(OS(=O)(=O)c2ccccc2)cc1)c1cccc([N+](=O)[O-])c1", 0.93),
    ("O=C(N/N=C/c1ccc(O)c([N+](=O)[O-])c1)c1cc(O)c(O)c(O)c1", 0.99),
    ("O=C(N/N=C/c1ccc(O)c([N+](=O)[O-])c1)c1cc(O)cc(O)c1", -0.68),
    ("O=C(N/N=C/c1ccc(F)c([N+](=O)[O-])c1)c1cc(O)cc(O)c1", 0.74),
    ("O=C(N/N=C/c1cc(Cl)ccc1[N+](=O)[O-])c1cc(O)cc(O)c1", 0.57),
    ("CC(=O)Nc1ccc(/C=N/NC(=O)c2cc(O)cc(O)c2)cc1", 1.14),
    ("COc1cc(/C=N/NC(=O)c2cc(O)cc(O)c2)cc(OC)c1O", 1.17),
    ("O=C(N/N=C/c1cc([N+](=O)[O-])ccc1F)c1cc(O)c(O)c(O)c1", 1.56),
]

I would be grateful if you could provide log10(IC50) for each of the following entries.
1. COc1ccc(Br)cc1C(=O)N/N=C/c1ccc(Oc2ccc([N+](=O)[O-])cc2C#N)cc1
2. O=C(N/N=C/c1ccc(F)c([N+](=O)[O-])c1)c1cc(O)c(O)c(O)c1
3. CCC(CC)O[C@@H]1C=C(C(=O)O)C[C@H](N)[C@H]1NC(C)=O [OSELTAMIVIR CARBOXYLATE]
4. COc1cc(/C=N\NC(=O)c2ccc(Cn3cc(Br)c([N+](=O)[O-])n3)o2)cc(OC)c1O
5. O=C(N/N=C/c1cc(Cl)ccc1[N+](=O)[O-])c1cc(O)c(O)c(O)c1

Completion:
1. 0.89
2. 1.36
3. 0.48
4. 1.11
5. 1.03

Answer for every listed entry: what is its log10(IC50)? The entries follow.
1. O=C(N/N=C/c1cc([N+](=O)[O-])ccc1F)c1cc(O)cc(O)c1
2. CCOC(=O)c1ccc(N/N=C/c2cc(Br)cc([N+](=O)[O-])c2O)cc1

Completion:
1: 0.60; 2: 1.20
